Where do the numbers come from? From the Human Domainome abundance scans (Beltran et al. 2025).

B1: Ankyrin repeat and SAM domain-containing protein 6, residues 774 to 836; numbered along this chain, Q68DC2 (parent)
chain: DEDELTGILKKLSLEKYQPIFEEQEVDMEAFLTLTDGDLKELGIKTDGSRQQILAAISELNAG

Variants of: B1
Experiment: abundance fitness (aPCA) (normalised: wild type 0, dead -1); higher = more abundant; growth selection in yeast, the domain comes from the species named
Settings: Homo sapiens
Classification field: y = abundance fitness at or over -0.4; n = abundance fitness under -0.4.

>>> class_name("L54F")
"n"
>>> class_name("K40Q")
"y"
>>> class_name("T46F")
"y"
>>> class_name("E4D")
"y"
>>> class_name("D47F")
"y"
>>> class_name("T33A")
"y"
>>> class_name("F21W")
"n"
>>> class_name("E29C")
"y"
